Provide the recorded apparent KD of MS2 coat protein for the entries that follow.
# Tested on: MS2 coat protein
# testName: apparent KD of MS2 coat protein; designed switch direction (-1 OFF switch, 1 ON switch): -1; higher = weaker reporter binding
# measurementSetup: Eterna round: R95; input ligand: microRNA oligo, concentration not stated
Report the figure in nM without appending any unit label.

// apparent KD of MS2 coat protein lookup, sequence = AAAGUUCGAGGAUAUCUACUUAGCUACAUGAGGAUCACCCAUGUUAUCCUCCCGCUGGGAAGAGAAGGCGGUUAAA [Xeonceso] (puzzle: Exclusion 5) , result: 41.7

// apparent KD of MS2 coat protein lookup, sequence = GUAUAUAGUGUGAGGAUAUGCUGGUCCUUGGAUCAGCAGAAGGCACAUGAGGAUCACCCAUGUAGUUAAAUAUA [Mat - Exclusion 4 - JL Mod - D20] (puzzle: Brourd's mod of Exclusion 4) , result: 30.1

// apparent KD of MS2 coat protein lookup, sequence = ACGUGAUAUCUGUCGGUGGACAUGAGGAUCACCCAUGUAAGCUUUUCGCUCGUCUUAUAACCCGGUGACAGACCUUC [Edraatis] (puzzle: Sensor v3, turn-off variant 1) , result: 417

// apparent KD of MS2 coat protein lookup, sequence = UGUACGAUGCGUGCUGACAUGCGUCGUGCAGCAGGUUUUACAUGAGGAUCACCCAUGUCCUCACUUGCUCGUCUUGU (puzzle: Sensor v3, turn-off variant 2) , result: 187

// apparent KD of MS2 coat protein lookup, sequence = GCUGGGUCAGGAUAUACGAGAUCGAAAGAUCGAAGAUCCGUACAUGAGGAUCACCCAUGUAGAAGGGACUGGGC [ChP 11-04-2015 #7] (puzzle: Exclusion 2) , result: 19.5

----------
# Tested on: MS2 coat protein
# testName: apparent KD of MS2 coat protein; designed switch direction (-1 OFF switch, 1 ON switch): 1; higher = weaker reporter binding
# measurementSetup: Eterna round: R95; input ligand: microRNA oligo, concentration not stated
Provide the recorded apparent KD of MS2 coat protein for the entries that follow.
Report the figure in µM without appending any unit label.

// apparent KD of MS2 coat protein lookup, sequence = UCUUGGUUUUUGCUCGUUUUUUGUGUUGAACAUGAGGAUCACCCAUGUAUUAUACGGUCCGGUUUAAUAAUAAUCCG [JMF 81] (puzzle: Sensor for hsa-mir-208a) , result: 0.0146

// apparent KD of MS2 coat protein lookup, sequence = AAUGCACAUGAGGAUCACCCAUGUAAGACAAAGACAGGAUAUGGGCCGCAUGGCUCUGGCCCAGAAGGGUCAGUCG [Biorinin] (puzzle: Same State 1) , result: 0.0198

// apparent KD of MS2 coat protein lookup, sequence = GUGCAACCGUGUGAGGAUAUCGGUGAAUAGACAUGAGGAUCACCCAUGUCCGAAGCUCGGUUCUCCGAGAAGGCGCACAGUUGCA [Same State 2 - Mod of Erisin v.5] (puzzle: Same State 2) , result: 0.0415

----------
# System: MS2 coat protein
# testName: apparent KD of MS2 coat protein; higher = weaker reporter binding
# measurementSetup: Eterna round: R107; input ligand: arginine 13.2 mM
Provide the recorded apparent KD of MS2 coat protein for the entries that follow.
Report the figure in nM without appending any unit label.

// apparent KD of MS2 coat protein lookup, sequence = AGUACUCGAACGGAUACCAGCCGGACAUGAGGAUCACCCAUGUCCUACCAUUGUUCGGUUGGCCCUUGGCAGCCGUUCGUGUACA [Omei Theo B SS A v4] , result: 125

// apparent KD of MS2 coat protein lookup, sequence = UGUAUGUGAUCUGAUACCAGAGUUGAUAAUCUGAGGAUCACCCUGGUAAGGCGAAAGCCGCUCCCUUGGCAGCAGAUCGCAUACU , result: 526

// apparent KD of MS2 coat protein lookup, sequence = UAUCGCGCGGCGGCCGCCACUAAUGGCAGAUCUGUCGACUAACAUGAGGAUCACCCAUGUCUAACUAGGACCGGGCCCAAGUUGU [theeternabot_sameState_MS2_Trp_B_7] , result: 30.5

// apparent KD of MS2 coat protein lookup, sequence = CGAUGAUCGAGGGAUACCAGAAAUGGUAUUCCUUUAUUUCUUACAUGAGGAUCACCCAUGUUCCCUUGGCAGCUUUUGAUCAUCG [ETHB #7] , result: 60.5

// apparent KD of MS2 coat protein lookup, sequence = CUCUGAGUGAUCGCUCACUCAGAGGCGGAUACCAGCGAGGUCCAUCGCCCUUGGCAGCCGAACAUGAGGAUCACCCAUGUCGGUA [#1 Same State - Theophylline A Attempt #20 (HarryS)] , result: 8.77

// apparent KD of MS2 coat protein lookup, sequence = ACGACGCAUACAGAUACCAGUAGAACAUGAGGAUCACCCAUGUCUGAGGCGCUCCGCCACUGCCCUUGGCAGCUGUAUGCGUCAG [SSTheo B #11] , result: 9.42

----------
Provide the recorded apparent KD of MS2 coat protein for the entries that follow.
# System: MS2 coat protein
# testName: apparent KD of MS2 coat protein; higher = weaker reporter binding
# measurementSetup: Eterna round: R107; input ligand: theophylline 2 mM
Note: a bare number is incomplete; add the unit.

// apparent KD of MS2 coat protein lookup, sequence = UACCGAUGAAGAAGGAGCGUAUGCUUAUAUGAUGGUAACAUGAGGAUCACCCAUGUCAGUAUACAGGUAGGUCGCUUCAUCGGUA [EAB NP+V+V2 #22] , result: 73.3 nM

// apparent KD of MS2 coat protein lookup, sequence = UGGCGAGAAGGAAGGAGCGUCAGCUGAGUUACAUGAGGAUCACCCAUGUUGCACAUAGUGUGACAGGUAGGUCGCCUUCUGCCCU [SS-ArgB19] , result: 37.5 nM

// apparent KD of MS2 coat protein lookup, sequence = UUCUUUGACGAUCUGGGUUUACCAGAUCGACGAGGACCGGUACGGCCGCCACUCGUGUUUUCUUUACAUGAGGAUCACCCAUGUU [#16Tryptophan A Same State] , result: 19.1 nM

// apparent KD of MS2 coat protein lookup, sequence = GCAUCCUAGUCGGCCGCCACUGCGGAUCCGGUUCUAGAUCCUUAACAUGAGGAUCACCCAUGUAGCAGGACCGGGACUAGGAUGC [(Trp1)-(TM)''-(TM)'-(Ms2)-(Trp2)_Design2] , result: 324 nM

// apparent KD of MS2 coat protein lookup, sequence = AAACAUGAGGAUCACCCAUGUAUACUUAGACGAGGACCGGUACGGCCGCCACUCGAACUUCAAGAUUUGGCGGAAAAUGUAUGUA [JR_ExcTryptoA_Sub022] , result: 12.1 nM

----------
# Tested on: K4 kissing-loop RNA reporter;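 further: bound reporter read as fluorescence of individual clusters on recovered sequencing chips by microscopy, with normalized cluster intensities fitted with a binding model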
# testName: apparent KD of K4 kissing-loop reporter; higher = weaker reporter binding
# measurementSetup: Eterna round: R107; input ligand: tryptophan 2.4 mM
Criterion: apparent KD of K4 kissing-loop reporter meeting or surpassing 300 nM. Met: True. Not met: False.

### Prompt Form field: apparent KD of K4 kissing-loop reporter at least 300 nM? Entry: GAAAGAAAGAAUGAUACCAGACACCCGAGUGAUGUUCGGAGCAGAGUGAUGUUCUAAUAAGUCCCUUGGCAGCAUAAAAGAAAAG [Same State Theophylline B GF 1]
### Response False

### Prompt Form field: apparent KD of K4 kissing-loop reporter at least 300 nM? Entry: AACUCUCAGAUACUUGAGUGAUGUUCAGGCCGAGGACCGGUACGGCCGCCACUCGGGUCUGAGAGAGGUUAUCAAAGAUAGCCAA [Omei KL Tryp A SS A v10]
### Response False

### Prompt Form field: apparent KD of K4 kissing-loop reporter at least 300 nM? Entry: UAUGUACACUGGUAGUGGUACAUCGAGGAAGGAGCGUGCGCAGGCACAGGUAGGUCGCCUCAGCGCACGAGUGAUGUUCGUGGGC [Ceaqu]
### Response False

### Prompt Form field: apparent KD of K4 kissing-loop reporter at least 300 nM? Entry: UGGCAAGUGAUGUUUGCGUUUCCGCAGGAUACCAGUCUGUCUUGAGACCCUUGGCAGCCUGGGUACAGUCCAAGCGGUCACACGA [theeternabot_exclusion_KL_Theo_A_38]
### Response False

### Prompt Form field: apparent KD of K4 kissing-loop reporter at least 300 nM? Entry: UAAUCCUAGUGAUAAUAAUCAAGUGGUGGGCGAGGACCGGUACGGCCGCCACUCGAAUAUGCAGUGAUGUUGUAAUCCGGAUAAU [Exclusion - Tryptophan A (Freestyle 6)]
### Response True

### Prompt Form field: apparent KD of K4 kissing-loop reporter at least 300 nM? Entry: AUUAAUUUCAGAGGAUAUGCUUUAUUAUUAUUUUUAAAUAAUAAAUGCAGUGAUGUUGCUUAUUAUGCAGAAGGCUGAUUUAUAA [JR_SSFMNB_Sub014]
### Response True
